Tested on: HOP-62 complex spheroids with HUVEC/MSC, viability
Assay: Anticancer human tumor HOP-62 cell line growth inhibition [RAS];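 also: spheroids exposed to agents for seven days before readout; 100% = DMSO vehicle control viability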
Condition info: second compound 0.00949 µM; first compound 0.01 µM; hits give low values
Quantity kind: viability, T/C (%)
Dear colleague, please return just the value in %, with no unit written.

O=C(c1ccc(F)c(F)c1Nc1ccc(I)cc1F)N1CC(O)([C@@H]2CCCCN2)C1 + CCn1c(-c2cc(N3CCN(C)CC3)cnc2C(C)OC)c2c3cc(ccc31)-c1csc(n1)CC(NC(=O)C1CC1C)C(=O)N1CCCC(N1)C(=O)OCC(C)(C)C2; 52
CCN1CCN(Cc2ccc(Nc3ncc(F)c(-c4cc(F)c5nc(C)n(C(C)C)c5c4)n3)nc2)CC1 + CCn1c(-c2cccnc2C(C)OC)c2c3cc(ccc31)N1CCOC(CC(NC(=O)C(C(C)C)N(C)C(=O)C3(F)CCN(C(=O)C#CC(C)(C)N(C)C)CC3)C(=O)N3CCCC(N3)C(=O)OCC(C)(C)C2)C1; 81.7
Nc1ccn(C2OC(CO)C(O)C2(F)F)c(=O)n1 (centres undefined) + CCn1c(-c2cccnc2C(C)OC)c2c3cc(ccc31)N1CCOC(CC(NC(=O)C(C(C)C)N(C)C(=O)C3(F)CCN(C(=O)C#CC(C)(C)N(C)C)CC3)C(=O)N3CCCC(N3)C(=O)OCC(C)(C)C2)C1; 41

Consider now this further molecule.
Input: Quick check: viability, T/C of CC(C)n1nc(-c2ccc3oc(N)nc3c2)c2c(N)ncnc21 + CCn1c(-c2cccnc2C(C)OC)c2c3cc(ccc31)N1CCOC(CC(NC(=O)C(C(C)C)N(C)C(=O)C3(F)CCN(C(=O)C#CC(C)(C)N(C)C)CC3)C(=O)N3CCCC(N3)C(=O)OCC(C)(C)C2)C1 ?
Output: 53.4

* * *

Test system: HOP-62 complex spheroids with HUVEC/MSC, viability
Assay: Anticancer human tumor HOP-62 cell line growth inhibition [RAS];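 also: spheroids exposed to agents for seven days before readout; 100% = DMSO vehicle control viability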
Condition info: second compound 0.316 µM; first compound 0.01 µM; hits give low values
Text: RAS pathway inhibitors in Combinations in Complex Spheroids A high-throughput screen of multi-cell type tumor spheroids was designed to identify active combinations of RAS pathway inhibitors and targeted small molecules. Complex spheroids include a stromal component modeled by human endothelial cells (HUVEC) and fibroblasts modeled by human mesenchymal stem cells (MSCs). […] Compounds. […] If the clinical Cmax for an agent had not been determined, the highest concentration tested was 10 microM. […]
The threshold is 60%. Values of viability, T/C beneath it are tagged condition met; values meeting or exceeding it are tagged condition not met.

C=CC(=O)Nc1cc(Nc2nccc(-c3cn(C)c4ccccc34)n2)c(OC)cc1N(C)CCN(C)C + C#Cc1c(F)ccc2cc(O)cc(-c3ncc4c(N5CC6CCC(C5)N6)nc(OCC56CCCN5CC(F)C6)nc4c3F)c12; condition not met
O=C(c1ccc(F)c(F)c1Nc1ccc(I)cc1F)N1CC(O)([C@@H]2CCCCN2)C1 + C=CC(=O)N1CCN(c2nc(OCC3CCCN3C)nc3c(F)c(-c4nc(N)cc(C)c4C(F)(F)F)c(Cl)cc23)C(C)C1; condition met
C=CC(=O)Nc1cc(Nc2nccc(-c3cn(C)c4ccccc34)n2)c(OC)cc1N(C)CCN(C)C + C=CC(=O)N1CCN(c2nc(OCC3CCCN3C)nc3c(F)c(-c4nc(N)cc(C)c4C(F)(F)F)c(Cl)cc23)C(C)C1; condition met

Input: viability, T/C under 60%? Item: Nc1ccn(C2OC(CO)C(O)C2(F)F)c(=O)n1 (stereo not given) + C#Cc1c(F)ccc2cc(O)cc(-c3ncc4c(N5CC6CCC(C5)N6)nc(OCC56CCCN5CC(F)C6)nc4c3F)c12
Output: condition met

Input: Hello, is viability, T/C of the following compound strictly smaller than 60%? Nc1ccn(C2OC(CO)C(O)C2(F)F)c(=O)n1 (stereo not given) + C=CC(=O)N1CCN(c2nc(OCC3CCCN3C)nc3c(F)c(-c4nc(N)cc(C)c4C(F)(F)F)c(Cl)cc23)C(C)C1
Output: condition met
